Data provenance: patent US8623593B1

TARGET_ENTITY: human GPR17 (hGPR17) (Homo sapiens)
MEASUREMENT_NOTES: calcium mobilization assay in CHO-GPR17 cells
Type: cell-based
Design: expressed in transfected cells
EXPERIMENTAL_PARAMETERS: calcium mobilization, CHO-GPR17 cells
Text: In order to investigate potential differences in receptor signalling as a function of the cellular background, GPR17 was additionally expressed and analysed in a further cell system. […] In order to detect the released calcium, cells are loaded with a cell membrane permeable dye, which is converted within the cell into its active form by the cleavage of ester bonds. […] The fluorescence properties of the dye change after calcium binds to the dye. […]
# pEC50 (± SEM) CHO-GPR17 per record follows

Completed entries (count: 4):
O=C(O)CCc1c(C(=O)O)[nH]c2cc(Cl)cc(Cl)c12: 6.09 (0.06)/ 8.20 (0.08)
O=C(O)CCc1c(C(=O)O)[nH]c2cc(Br)cc(Br)c12: 7.87 (0.16)
O=C(O)CCc1c(C(=O)O)[nH]c2cc(Cl)ccc12: 7.69 (0.10)
Cc1cc(C)c2c(CCC(=O)O)c(C(=O)O)[nH]c2c1: 6.47 (0.05)

Next item in the queue.
Value (pEC50 (± SEM) CHO-GPR17, human GPR17 (hGPR17) (Homo sapiens)) for record O=C(O)CCc1c(C(=O)O)[nH]c2cc(F)cc(F)c12 = 6.79 (0.10)

---

# % of response of 30 μM compound (± SEM) 1321N1-GPR17 per record follows
TARGET_ENTITY: UniProt Q13304
MEASUREMENT_NOTES: calcium mobilization assay in 1321N1-GPR17 cells
Format: cell-based
Set-up: expressed in transfected cells; host or cells: 1321N1 human astrocytoma cells, retroviral transfection with pLXSN-GPR17, G418 selection
EXPERIMENTAL_PARAMETERS: 30 μM compound; normalised to response of 30 μM RA-II-150
Text: The sequence for the human GPR17 (short isoform) was subcloned into the vector pLXSN (Clontech Laboratories, CA 94043, USA), which can be used for retroviral transfection of the human astrocytoma cell line 1321N1. […] PLC activation and IP3 accumulation result in a release of calcium from intracellular calcium stores, for example the endoplasmic reticulum. […] The fluorescence properties of the dye change after calcium binds to the dye. […]

Completed entries (count: 3):
O=C(O)CCc1c(C(=O)O)[nH]c2cc(Cl)ccc12: 84 (6) %
O=C(O)CCc1c(C(=O)O)n(CCC(=O)O)c2cc(Cl)cc(Cl)c12: 80 (6) %
Cc1cc(C)c2c(CCC(=O)O)c(C(=O)O)[nH]c2c1: 76 (6) %

Next item in the queue.
compound O=C(O)CCc1c(C(=O)O)[nH]c2cc(F)cc(F)c12 , % of response of 30 μM compound (± SEM) 1321N1-GPR17 observed: 77 (2) %

---

# pEC50 (± SEM) 1321N1-GPR17 per record follows
TARGET_ENTITY: human GPR17 (hGPR17) (Homo sapiens, UniProt Q13304)
Sequence (Q13304 29-367): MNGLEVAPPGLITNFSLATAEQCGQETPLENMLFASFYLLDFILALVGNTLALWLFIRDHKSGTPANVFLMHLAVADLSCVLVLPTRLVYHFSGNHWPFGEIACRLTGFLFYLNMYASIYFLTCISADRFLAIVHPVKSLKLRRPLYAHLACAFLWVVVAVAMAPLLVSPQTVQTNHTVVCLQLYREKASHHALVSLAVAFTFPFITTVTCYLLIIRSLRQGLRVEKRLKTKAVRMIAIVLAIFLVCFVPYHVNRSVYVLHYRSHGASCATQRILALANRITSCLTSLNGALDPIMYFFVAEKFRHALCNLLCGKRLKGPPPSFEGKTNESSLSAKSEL
MEASUREMENT_NOTES: calcium mobilization assay in 1321N1-GPR17 cells
Assay type: cell-based
Set-up: expressed in transfected cells; host or cells: 1321N1 human astrocytoma cells, retroviral transfection with pLXSN-GPR17, G418 selection
EXPERIMENTAL_PARAMETERS: calcium mobilization, 1321N1-GPR17 cells

O=C(O)CCc1c(C(=O)O)[nH]c2cc(F)cc(F)c12: 5.13 (0.13)
Cc1cc(C)c2c(CCC(=O)O)c(C(=O)O)[nH]c2c1: 4.86 (0.10)

Next item in the queue.
compound O=C(O)CCc1c(C(=O)O)[nH]c2cc(Cl)ccc12 , pEC50 (± SEM) 1321N1-GPR17 observed: 5.43 (0.14)

---

TARGET_ENTITY: human GPR17 (hGPR17) (Homo sapiens, UniProt Q13304)
MEASUREMENT_NOTES: calcium mobilization assay in 1321N1-GPR17 cells
Type: cell-based
Design: expressed in transfected cells; host or cells: 1321N1 human astrocytoma cells, retroviral transfection with pLXSN-GPR17, G418 selection
EXPERIMENTAL_PARAMETERS: calcium mobilization, 1321N1-GPR17 cells
# pEC50 (± SEM) 1321N1-GPR17 per record follows
Answer with a number only.

O=C(O)CCc1c(C(=O)O)[nH]c2cc(I)cc(I)c12: 5.32

molecule O=C(O)CCc1c(C(=O)O)[nH]c2cc(Br)ccc12 , pEC50 (± SEM) 1321N1-GPR17 observed: 5.50

molecule O=C(O)CCc1c(C(=O)O)[nH]c2cc(-c3ccccc3)cc(-c3ccccc3)c12 , pEC50 (± SEM) 1321N1-GPR17 observed: 5.52

molecule O=C(O)CCc1c(C(=O)O)[nH]c2cc(I)ccc12 , pEC50 (± SEM) 1321N1-GPR17 observed: 6.15

molecule O=C(O)CCc1c(C(=O)O)[nH]c2cc(-c3ccccc3)ccc12 , pEC50 (± SEM) 1321N1-GPR17 observed: 6.14
